// data source = ChEMBL document CHEMBL1828497

Assay: Lipophilicity, log D of the compound at pH 7.4
Settings: buffer
Could you please report measured logD for the items listed next?

The cases that follow already have their logD on record.
| Molecule | Property measured | Val |
| --- | --- | --- |
| CCCCCn1cc(C(=O)c2cccc3ccccc23)c2ccccc21 | logD | > 5 |
| COCCn1cc(C(=O)Nc2ccc3ccccc3c2)c2ccccc21 | logD | 3.69 |
| CCCCCn1cc(C(=O)Nc2ccc3ccccc3c2)c2ccccc21 | logD | > 5 |
| CCCCCn1cc(C(=O)c2ccc(-c3ccccc3)cc2)c2ccccc21 | logD | > 5 |

Need logD for each of these molecules.
1. CCCCCn1cc(C(=O)c2cccc(-c3ccccc3)c2)c2ccccc21
2. COCCn1cc(C(=O)c2ccc(-c3ccccc3)cc2)c2ccccc21
3. CCCCCCC(C)(C)c1cc(O)c2c(c1)OC(C)(C)C1CCC(=O)CC21 (stereo not drawn)
4. COCCn1cc(C(=O)c2ccccc2-c2ccccc2)c2ccccc21

Key:
1: > 5; 2: 4.5; 3: > 5; 4: 3.31
